Kindly state activation (% of control) for each of the entries shown.
test: STAT1 signaling activators, primary screen, cell-based, HTS, luciferase reporter (AID 932);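 also: raw ratio to IFN-gamma control signal so 100% means no change and 0% no light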
measurement parameters: NIH 3T3 STAT1-luciferase reporter, IFN-gamma, luminescence; at 5.5 µM; stronger effect = higher value; 100% = IFN-gamma alone, no compound
Among all 200,000 compounds or so, about 5,100 (2.5%) were called active. Shown is part of a subset that was picked to be rich in actives.

q: Fill blank: measured activation (% of control) of the compound Cc1ccc(-c2cn3cc(C)ccc3n2)cc1 is ____.
a: 12.9% (inactive)

q: Fill blank: measured activation (% of control) of the compound COc1ccc(/C=C/C(=O)Nc2ccc(C34CC5CC(CC(O)(C5)C3)C4)cc2)cc1OC is ____.
a: 141% (active)

q: Fill blank: measured activation (% of control) of the compound O=C(O)/C=C\C(=O)Nc1ccc(OCc2ccccc2)cc1 is ____.
a: 120% (inactive)

q: Fill blank: measured activation (% of control) of the compound COc1ccc(/C=C/C(=O)Nc2cccnc2)cc1OC is ____.
a: 112% (inactive)

q: Fill blank: measured activation (% of control) of the compound Cc1[nH]nc(SCC(=O)NCC(C)C)c1[N+](=O)[O-] is ____.
a: 102% (inactive)

q: Fill blank: measured activation (% of control) of the compound COc1ccc(OCc2ccc(-c3nc4ccccc4c(=O)n3N)o2)cc1 is ____.
a: 127% (inactive)

q: Fill blank: measured activation (% of control) of the compound CC1(C)CC(=O)C2=C(C1)Nc1cc(C(=O)c3ccccc3)ccc1NC2c1ccccn1 (centres undefined) is ____.
a: 104% (inactive)

q: Fill blank: measured activation (% of control) of the compound COc1ccc(CCNC(=O)/C(C#N)=C2\N=C(NC(=O)c3cccs3)c3ccccc32)cc1 is ____.
a: 95.7% (inactive)

q: Fill blank: measured activation (% of control) of the compound Cc1nnc(SCC2=C(C(=O)O)N3C(=O)C(NC(=O)Cn4nc(C)c(Cl)c4C)C3SC2)s1 (centres undefined) is ____.
a: 99.2% (inactive)

q: Fill blank: measured activation (% of control) of the compound CN(CC(=O)Nc1ccccc1[N+](=O)[O-])Cc1ccc(Br)cc1 is ____.
a: 97.7% (inactive)

q: Fill blank: measured activation (% of control) of the compound CCOC(=O)c1ccc2c(c1)nc(C)n2CC is ____.
a: 130% (active)

q: Fill blank: measured activation (% of control) of the compound CN(Cc1ccccc1)C(=O)CCc1ccccc1 is ____.
a: 104% (inactive)

q: Fill blank: measured activation (% of control) of the compound CNC(=O)CSc1nnnn1-c1ccc(C)cc1C is ____.
a: 97.7% (inactive)

q: Fill blank: measured activation (% of control) of the compound CCN(CC(=O)NCc1cccs1)S(=O)(=O)c1ccc(NC(C)=O)cc1 is ____.
a: 104% (inactive)

====

test: STAT1 signaling activators, primary screen, cell-based, HTS, luciferase reporter (AID 932);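 also: raw ratio to IFN-gamma control signal so 100% means no change and 0% no light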
measurement parameters: NIH 3T3 STAT1-luciferase reporter, IFN-gamma, luminescence; at 5.5 µM; 100% = IFN-gamma alone, no compound
Screen size: about 200,000 compounds; about 5,100 (2.5%) were called active.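 How the source made its calls: active means activation above the screen-wide mean activation plus 3 SD (cut at about 130% in these data); inactive means the rest.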 Only a selection was taken, and actives are over-represented in it overall.
Write down one outcome, taken from active, inactive

q: What did this assay record as the result for Cc1cccc(C)c1N1CCN(S(=O)(=O)N2CCCCC2)CC1 ?
a: inactive

q: What did this assay record as the result for CN(C)/C=C/C(=O)c1cnc2sccn2c1=O ?
a: inactive

q: What did this assay record as the result for COc1ccc(-n2nc3c(c2NC(=O)c2ccc(N4C(=O)CCC4=O)cc2)CSC3)cc1 ?
a: inactive

q: What did this assay record as the result for COc1ccc(-c2csc(NC(=O)COC(=O)Cc3ccc(Cl)cc3Cl)n2)cc1 ?
a: inactive

q: What did this assay record as the result for CCNC(=S)NNC(=O)C1CCN(Cc2ccccc2)CC1 ?
a: inactive

q: What did this assay record as the result for C=CCSc1nc2ccccc2[nH]1 ?
a: inactive

q: What did this assay record as the result for Cc1nnc(CN(C)Cc2cn[nH]c2-c2ccc(-c3ccccc3)cc2)o1 ?
a: inactive

q: What did this assay record as the result for Cn1c(=O)c2c(ncn2CC(=O)N/N=C/c2cn[nH]c2-c2ccc(F)cc2)n(C)c1=O ?
a: inactive

q: What did this assay record as the result for CC1CCN(S(=O)(=O)c2ccc3ncn(CC(=O)N(C)C4CCCCC4)c(=O)c3c2)CC1 ?
a: inactive

q: What did this assay record as the result for Cc1cc(N/C=C\C(=O)c2ccc(Cl)c(Cl)c2)no1 ?
a: active

q: What did this assay record as the result for O=C(CS(=O)(=O)Cc1ccccc1)NCC1CCCO1 (stereo not drawn) ?
a: inactive

q: What did this assay record as the result for [O-][n+]1onc2c1CCc1[nH]c(-c3ccccc3)nc1-2 ?
a: inactive

q: What did this assay record as the result for COc1ccc(-c2csc(NC(=O)CCCc3cccs3)n2)cc1 ?
a: inactive

q: What did this assay record as the result for O=C(Nc1ccncc1)c1c(F)cccc1F ?
a: inactive

q: What did this assay record as the result for CCC(=O)Nc1ccc(C(=O)Nc2cc(C)on2)cc1 ?
a: inactive

q: What did this assay record as the result for CC(=NCC1CCCO1)c1c(O)[nH]c(=O)[nH]c1=O (stereo not drawn) ?
a: inactive

q: What did this assay record as the result for CSc1nc2ccc(NC(=O)c3c(F)cccc3F)cc2s1 ?
a: active

q: What did this assay record as the result for CCOc1cc(NC(=S)NCc2ccco2)c(OCC)cc1NC(=O)c1ccco1 ?
a: inactive

q: What did this assay record as the result for COc1ccc2c(c1)CC[C@@H]1[C@@H]2CC[C@]2(C)C(=O)CC[C@@H]12 ?
a: inactive

q: What did this assay record as the result for COc1ccc(CCn2ccc(O)c(Cc3ccc(Cl)cc3Cl)c2=O)cc1OC ?
a: inactive

q: What did this assay record as the result for C=CCn1c(COc2ccc(F)cc2)nnc1SCC(=O)Nc1cccc(S(N)(=O)=O)c1 ?
a: inactive

q: What did this assay record as the result for COc1cc(SC)ccc1C(=O)NCCOc1ccccc1Cl ?
a: active

q: What did this assay record as the result for COCCOCCn1cnc2ccccc21 ?
a: inactive
